- testSystem: P2X purinoceptor 7 (Homo sapiens, UniProt Q99572)
- Sequence (Q99572 whole entry): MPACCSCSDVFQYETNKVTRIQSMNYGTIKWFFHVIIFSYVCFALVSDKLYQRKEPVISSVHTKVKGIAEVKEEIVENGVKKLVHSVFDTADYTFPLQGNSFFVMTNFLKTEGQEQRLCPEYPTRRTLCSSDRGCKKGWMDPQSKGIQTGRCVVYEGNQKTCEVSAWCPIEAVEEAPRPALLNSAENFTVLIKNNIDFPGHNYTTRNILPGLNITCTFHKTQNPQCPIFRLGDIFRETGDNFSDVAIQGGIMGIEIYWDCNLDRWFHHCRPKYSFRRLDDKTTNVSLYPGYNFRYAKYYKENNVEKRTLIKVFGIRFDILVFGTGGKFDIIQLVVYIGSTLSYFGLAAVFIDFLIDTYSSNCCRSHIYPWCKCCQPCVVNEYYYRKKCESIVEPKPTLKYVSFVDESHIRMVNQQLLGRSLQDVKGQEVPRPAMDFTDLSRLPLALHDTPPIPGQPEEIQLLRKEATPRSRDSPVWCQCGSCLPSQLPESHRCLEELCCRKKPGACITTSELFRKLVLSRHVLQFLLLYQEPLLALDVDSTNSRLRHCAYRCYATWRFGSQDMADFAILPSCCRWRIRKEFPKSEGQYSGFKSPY
- runDescription: Antagonist activity at P2X7 receptor in LPS-stimulated human whole blood assessed as inhibition of ATP-induced IL1-beta production treated 30 mins before LPS challenge measured after 3 hrs by ELISA
Each entry below lists one item and its recorded log10(IC50) value.
Answers are given as log10 of IC50 in nM.

Look over these answered cases.
In [3]: df
Out[3]:
                             compoundstring  testreadout  valuemeasured
0  CCN1C(=O)c2nc(-c3ccc(-c4ccccc4F)nc3)n(Cc3ccc(F)c(F)c3)c2N2CC(C)(C)N=C12  log10(IC50)           1.72
1  CCN1C(=O)c2nc(-c3ccc(-c4ccccc4OC)nc3)n(Cc3ccc(F)c(F)c3)c2N2CC(C)(C)N=C12  log10(IC50)           2.00
2  CCN1C(=O)c2nc(-c3ccc(-c4ccc(C(F)(F)F)cc4)nc3)n(Cc3ccc(F)c(F)c3)c2N2CC(C)(C)N=C12  log10(IC50)           2.14

Moving on to another compound below.
q: Could you share which log10(IC50) value was measured for "CCN1C(=O)c2nc(-c3ccc(-c4ccc(OC(F)(F)F)cc4)nc3)n(Cc3ccc(F)c(F)c3)c2N2CC(C)(C)N=C12" ?
a: 3.29

###

- testSystem: UniProt:Q99572
- runDescription: Antagonist activity at P2X7 receptor in LPS-stimulated human whole blood assessed as inhibition of ATP-induced IL1-beta production treated 30 mins before LPS challenge measured after 3 hrs by ELISA
The following compounds are listed with their measured pIC50 values.
Please express pIC50 as -log10 of the molar concentration.

>>> df
                             compoundstring  valuemeasured
0  CCN1C(=O)c2nc(-c3ccc(-c4ccccc4)cc3)n(Cc3ccc(F)cc3)c2N2C[C@@H](C(C)C)N=C12           6.63

q: Endpoint output: pIC50 of "CCN1C(=O)c2nc(-c3ccc(-c4ccccc4)cc3)n(Cc3ccc(F)cc3)c2N2CC(C)(C)N=C12" . Value?
a: 6.56

q: Form field: reported pIC50 of "CCN1C(=O)c2nc(-c3ccc(-c4ccccc4)cc3)n(Cc3ccc(F)c(F)c3)c2N2C[C@@H](C(C)C)N=C12"
a: 6.75

q: What pIC50 value was documented for this compound, "CCN1C(=O)c2nc(-c3ccc(-c4ccccc4)cc3)n(Cc3ccc(F)c(F)c3)c2N2CC3(CCCCC3)N=C12" ?
a: 6.41

q: Request the reported pIC50 associated with "CCN1C(=O)c2nc(-c3ccc(-c4ccc(OC)cc4)nc3)n(Cc3ccc(F)c(F)c3)c2N2CC(C)(C)N=C12"
a: 7.30

q: Consider the compound shown here: "CCN1C(=O)c2nc(-c3ccc(-c4ccccc4)nc3)n(Cc3ccc(F)c(F)c3)c2N2CC(C)(C)N=C12" What is its recorded pIC50?
a: 7.62

q: What does the record list as pIC50 for "CCN1C(=O)c2nc(-c3ccc(-c4ccc(F)cc4F)nc3)n(Cc3ccc(F)c(F)c3)c2N2CC(C)(C)N=C12" ?
a: 7.02
